Tested on: 624824-186-R-J3-PDC multicell spheroids, viability;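 further: spheroids exposed to agents for seven days before luminescence read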
Test: Anticancer human tumor 624824-186-R-J3-PDC patient-derived colon adenocarcinoma cell line growth inhibition [PI3K]
Conditions: curve of first compound; second compound 1 µM
pIC50: −log10 of the molar value.
Measured pIC50 of individual entries

{"MOLECULE": "CC(C)n1nc(-c2ccc3oc(N)nc3c2)c2c(N)ncnc21 + COc1c(OCCCN2CCOCC2)ccc2c3n(c(=NC(=O)c4cnc(N)nc4)nc12)CCN3", "pIC50": "> 9.50"}
{"MOLECULE": "C=CC(=O)N1CCN(c2nc(=O)n(-c3c(C)ccnc3C(C)C)c3nc(-c4c(O)cccc4F)c(F)cc23)C(C)C1 (stereo not given) + Cc1nc(NC(=O)N2CCCC2C(N)=O)sc1-c1ccnc(C(C)(C)C(F)(F)F)c1", "pIC50": "< 5.00"}
{"MOLECULE": "CC(=O)c1c(C)c2cnc(Nc3ccc(N4CCNCC4)cn3)nc2n(C2CCCC2)c1=O + COc1c(OCCCN2CCOCC2)ccc2c3n(c(=NC(=O)c4cnc(N)nc4)nc12)CCN3", "pIC50": "> 9.50"}
{"MOLECULE": "CC1(C)CCC(CN2CCN(c3ccc(C(=O)NS(=O)(=O)c4ccc(NCC5CCOCC5)c([N+](=O)[O-])c4)c(Oc4cnc5[nH]ccc5c4)c3)CC2)=C(c2ccc(Cl)cc2)C1 + Cc1nc(NC(=O)N2CCCC2C(N)=O)sc1-c1ccnc(C(C)(C)C(F)(F)F)c1", "pIC50": "< 5.00"}
{"MOLECULE": "C=CC(=O)N1CCN(c2nc(=O)n(-c3c(C)ccnc3C(C)C)c3nc(-c4c(O)cccc4F)c(F)cc23)C(C)C1 (stereo not given) + COc1c(OCCCN2CCOCC2)ccc2c3n(c(=NC(=O)c4cnc(N)nc4)nc12)CCN3", "pIC50": "> 7.50"}
{"MOLECULE": "Cn1nccc1Nc1nccc(-c2ccn(C(CO)c3ccc(Cl)c(F)c3)c(=O)c2)n1 (stereo not given) + CC(Nc1ncnc2nc[nH]c12)c1cc2cccc(Cl)c2c(=O)n1-c1ccccc1", "pIC50": 5.03}
{"MOLECULE": "C=CC(=O)N1CCN(c2nc(=O)n(-c3c(C)ccnc3C(C)C)c3nc(-c4c(O)cccc4F)c(F)cc23)C(C)C1 (stereo not given) + CC(Nc1ncnc2nc[nH]c12)c1cc2cccc(Cl)c2c(=O)n1-c1ccccc1", "pIC50": "< 5.00"}
{"MOLECULE": "CC1(C)CCC(CN2CCN(c3ccc(C(=O)NS(=O)(=O)c4ccc(NCC5CCOCC5)c([N+](=O)[O-])c4)c(Oc4cnc5[nH]ccc5c4)c3)CC2)=C(c2ccc(Cl)cc2)C1 + COc1c(OCCCN2CCOCC2)ccc2c3n(c(=NC(=O)c4cnc(N)nc4)nc12)CCN3", "pIC50": "> 7.50"}
{"MOLECULE": "CC(C)NCC(C(=O)N1CCN(c2ncnc3c2C(C)CC3O)CC1)c1ccc(Cl)cc1 (stereo not given) + CC(Nc1ncnc2nc[nH]c12)c1cc2cccc(Cl)c2c(=O)n1-c1ccccc1", "pIC50": "< 5.00"}
{"MOLECULE": "Cn1cnc2c(F)c(Nc3ccc(Br)cc3Cl)c(C(=O)NOCCO)cc21 + Cc1nc(NC(=O)N2CCCC2C(N)=O)sc1-c1ccnc(C(C)(C)C(F)(F)F)c1", "pIC50": 6.68}

Measured values drawn from PubChem BioAssay AID1963977 for this set.
